assay-name: DRUGMATRIX: Glutamate, NMDA, Phencyclidine radioligand binding (ligand: [3H] TCP)
Format: cell membranes, Rattus norvegicus, Wistar, Cerebral cortex, Membrane
condition-notes: Not Active = under 50% inhibition at 10 µM

compound: CSc1ccc(/C=C2/C(C)=C(CC(=O)O)c3cc(F)ccc32)cc1 [SULINDAC SULFIDE]
IC50: Not Active

compound: CC[C@@H](CO)NC(=O)[C@@H]1C=C2c3cccc4[nH]cc(c34)C[C@H]2N(C)C1 [METHYLERGONOVINE]
IC50: Not Active

compound: O=C(O)CCCc1ccc(N(CCCl)CCCl)cc1 [CHLORAMBUCIL]
IC50: Not Active

* * *

assayed-target: UniProt P12530
Sequence (P12530 whole entry): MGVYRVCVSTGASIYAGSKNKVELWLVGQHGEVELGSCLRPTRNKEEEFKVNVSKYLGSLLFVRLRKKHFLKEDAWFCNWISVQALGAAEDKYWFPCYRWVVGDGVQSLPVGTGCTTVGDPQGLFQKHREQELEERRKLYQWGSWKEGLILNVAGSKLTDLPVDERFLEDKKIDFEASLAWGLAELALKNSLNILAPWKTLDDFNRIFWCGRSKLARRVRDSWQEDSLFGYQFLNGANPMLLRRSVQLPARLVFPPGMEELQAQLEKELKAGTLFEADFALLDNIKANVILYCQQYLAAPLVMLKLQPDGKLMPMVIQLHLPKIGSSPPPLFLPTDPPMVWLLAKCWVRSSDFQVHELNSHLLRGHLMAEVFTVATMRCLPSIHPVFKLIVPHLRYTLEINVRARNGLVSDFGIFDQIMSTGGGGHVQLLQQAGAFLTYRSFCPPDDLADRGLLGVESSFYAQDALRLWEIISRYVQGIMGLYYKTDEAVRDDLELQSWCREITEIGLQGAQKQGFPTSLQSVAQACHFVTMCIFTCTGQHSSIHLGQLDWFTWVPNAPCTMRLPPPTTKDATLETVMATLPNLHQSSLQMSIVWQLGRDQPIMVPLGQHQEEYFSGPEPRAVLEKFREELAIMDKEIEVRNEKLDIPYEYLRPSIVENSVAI
assay-name: biochemical
Assay type: tissue-based, Reticulocytes
condition-notes: reticulocytes
quantity-name: IC50

compound: C=CCC1(C(C)CCC)C(=O)NC(=O)NC1=O (stereo not given) [SECOBARBITAL]
IC50: Not Active
//
compound: CC(C)CN(C[C@@H](O)[C@H](Cc1ccccc1)NC(=O)O[C@H]1CCOC1)S(=O)(=O)c1ccc(N)cc1
IC50: Not Active
//
compound: Cc1ccc(-c2cc(C(F)(F)F)nn2-c2ccc(S(N)(=O)=O)cc2)cc1 [CELECOXIB]
IC50: Not Active
//
compound: CC1(C)S[C@@H]2[C@H](NC(=O)Cc3ccccc3)C(=O)N2[C@H]1C(=O)O [PENICILLIN G]
IC50: Not Active
//
compound: NC1=NC(=O)C(c2ccccc2)O1 (stereo not given) [PEMOLINE]
IC50: Not Active
//
compound: CC(C)(Oc1ccc(Cl)cc1)C(=O)O [CLOFIBRIC ACID]
IC50: Not Active
//
compound: Cc1cc(C(C#N)c2ccc(Cl)cc2)c(Cl)cc1NC(=O)c1cc(I)cc(I)c1O (stereo not given) [CLOSANTEL]
IC50: Not Active
//
compound: Cc1c(O)c(=O)ccn1C [DEFERIPRONE]
IC50: Not Active
//
compound: N=C(N)NCCN1CCCCCCC1 [GUANETHIDINE]
IC50: Not Active
//
compound: Nc1c(Br)cc(Br)cc1CN[C@H]1CC[C@H](O)CC1 [AMBROXOL]
IC50: Not Active

Query: Bench note: what IC50 did NCCCCCC(=O)O [AMINOCAPROIC ACID] show?
Response: Not Active

Query: Bench note: what IC50 did CC1(C)O[C@@H]2C[C@H]3[C@@H]4CCC5=CC(=O)C=C[C@]5(C)[C@@]4(F)[C@@H](O)C[C@]3(C)[C@]2(C(=O)CO)O1 [TRIAMCINOLONE ACETONIDE] show?
Response: Not Active

Query: Bench note: what IC50 did C[C@H](CS)C(=O)N1CCC[C@H]1C(=O)O [CAPTOPRIL] show?
Response: Not Active

Query: Bench note: what IC50 did C[C@H]1c2cccc(O)c2C(=O)C2=C(O)[C@]3(O)C(=O)C(C(N)=O)=C(O)[C@@H](N(C)C)[C@@H]3[C@@H](O)[C@@H]21.O [DOXYCYCLINE] show?
Response: Not Active

Query: Bench note: what IC50 did COCCc1ccc(OCC(O)CNC(C)C)cc1 (stereo not given) [METOPROLOL] show?
Response: Not Active

Query: Bench note: what IC50 did O=c1oc2ccccc2c(O)c1Cc1c(O)c2ccccc2oc1=O [DICUMAROL] show?
Response: Not Active

Query: Bench note: what IC50 did Cc1oncc1C(=O)Nc1ccc(C(F)(F)F)cc1 [LEFLUNOMIDE] show?
Response: Not Active

Values compiled from ChEMBL document CHEMBL1909046.
